What melting point was measured for each of the following?

Reported melting point for `Cc1nc(C)c(Cl)c(CNCc2ccc(Oc3ccc4ncc([N+](=O)[O-])n4n3)cn2)n1` : what is it?
183 to 184 °C

Reported melting point for `Cc1nc(C)c(Cl)c(NCc2ccc(Oc3ccc4ncc([N+](=O)[O-])n4n3)cn2)n1` : what is it?
194 to 198 °C

Reported melting point for `COc1c(Oc2ccc3ncc([N+](=O)[O-])n3n2)cnc(CNc2nc(C)nc(C)c2Cl)c1C` : what is it?
229.5 to 231.5 °C

Reported melting point for `COc1c(OCCn2c([N+](=O)[O-])cnc2C)cnc(CNc2nc(C)nc(C)c2Cl)c1C` : what is it?
182.5 to 184 °C

Reported melting point for `Cc1nc(C)c(Cl)c(NCc2ccc(OCCn3c([N+](=O)[O-])cnc3C)c(Cl)n2)n1` : what is it?
206 to 208 °C

Reported melting point for `Cc1nc(C)c(Cl)c(NCc2ccc(OCCn3c([N+](=O)[O-])cnc3C)cn2)n1` : what is it?
181.5 to 183.5 °C

Reported melting point for `Cc1nc(C)c(Cl)c(NCc2ccc(Oc3ccc4ncc([N+](=O)[O-])n4n3)c(Cl)n2)n1` : what is it?
184 to 186 °C

Reported melting point for `Cc1nc(C)c(Cl)c(NCc2ccc(Oc3ccc4ncc([N+](=O)[O-])n4n3)cn2)n1.Cl.Cl` : what is it?
280 to 281 °C

Reported melting point for `Cc1nc(C)c(Cl)c(NCc2ccc(Oc3ccc4ncc([N+](=O)[O-])n4n3)cn2)n1.O=S(=O)(O)O` : what is it?
233 to 234 °C

Attribution: patent US20040158066A1
